For each entry below, report its Fold Increase in Lag Time; nucleation assay; 100 mole % value.
biological target: natural β-amyloid peptide β-AP1-40 (human); experiment: cell-based or functional assay
Sequence (peptide, as listed by the source): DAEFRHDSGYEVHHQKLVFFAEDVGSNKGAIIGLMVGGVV
* marks the point of attachment. Cholyl = C[C@H](CCC(=O)*)[C@H]1CC[C@H]2[C@@H]3[C@H](O)C[C@@H]4C[C@H](O)CC[C@]4(C)[C@H]3C[C@H](O)[C@]12C

Hi team, please reply with Fold Increase in Lag Time; nucleation assay; 100 mole % for each item in this list.
1. Cholyl-KLVFF-OH [cholyl-Aβ16-20]
2. H-KLVFF-OH [unmodified Aβ16-20]
3. Cholyl-AAAAA-OH (SMILES C[C@H](NC(=O)[C@H](C)NC(=O)[C@H](C)NC(=O)[C@H](C)NC(=O)[C@H](C)NC(=O)CC[C@@H](C)[C@H]1CC[C@H]2[C@@H]3[C@H](O)C[C@@H]4C[C@H](O)CC[C@]4(C)[C@H]3C[C@H](O)[C@]12C)C(=O)O) [Cholyl-penta-alanine]
4. Cholyl-KLVAF-OH (SMILES CC(C)C[C@H](NC(=O)[C@H](CCCCN)NC(=O)CC[C@@H](C)[C@H]1CC[C@H]2[C@@H]3[C@H](O)C[C@@H]4C[C@H](O)CC[C@]4(C)[C@H]3C[C@H](O)[C@]12C)C(=O)N[C@H](C(=O)N[C@@H](C)C(=O)N[C@@H](Cc1ccccc1)C(=O)O)C(C)C) [cholyl-Aβ16-20 (Phe19->Ala)]

**A:**
1: > 5 fold; 2: ~1 fold; 3: ~1 fold; 4: 2.6 fold
